- Tested on: Escherichia coli TOP10
- assay-protocol: shrunken log2 fold change of peptide-encoding DNA abundance (4.5 h post-induction vs induction); higher = less antimicrobial activity (less host growth inhibition)
- condition-context: time post-induction: 4.5 h; library: site-saturation at positions 5, 18, 19, 20
attribute-measured: shrunken log2 fold change

Answered examples (7):
* RRIRHRPPRLPRPRPRPREWPRP | 0.0987
* RRIRLRPPRLPRPRPRPMQMPRP | -0.11
* RRIRNRPPRLPRPRPRPPNPPRP | 0.411
* RRIRWRPPRLPRPRPRPKLLPRP | 0.336
* RRIRMRPPRLPRPRPRPIMAPRP | -0.0196
* RRIRDRPPRLPRPRPRPQDNPRP | -0.0684
* RRIRLRPPRLPRPRPRPIHNPRP | -1.05

Now, please, on to the next sequence.
Bench note, Escherichia coli TOP10: entry `RRIRFRPPRLPRPRPRPLCSPRP` , its shrunken log2 fold change = -0.566

* * *

- Test system: Escherichia coli TOP10
- assay-protocol: shrunken log2 fold change of peptide-encoding DNA abundance (4.5 h post-induction vs induction); higher = less antimicrobial activity (less host growth inhibition)
- condition-context: time post-induction: 4.5 h; library: site-saturation at positions 5, 18, 19, 20
Class definitions on shrunken log2 fold change: label 0: < -0.1; label 1: ≥ -0.1 and < 0.04; label 2: ≥ 0.04

// below: answered sequences
• RRIRNRPPRLPRPRPRPVSWPRP = label 2
• RRIRVRPPRLPRPRPRPNVMPRP = label 0

Hey, which category is `RRIRRRPPRLPRPRPRPSVCPRP` in, do you know?
label 1

In plain terms, what class is `RRIRPRPPRLPRPRPRPSVCPRP` ?
label 0

// return the class label for `RRIRRRPPRLPRPRPRPHNFPRP`
label 1

Hello team, could you let me know which band the following sequence falls into: `RRIRHRPPRLPRPRPRPHECPRP`
label 1

* * *

- Test system: Escherichia coli TOP10
- assay-protocol: shrunken log2 fold change of peptide-encoding DNA abundance (4.5 h post-induction vs induction); higher = less antimicrobial activity (less host growth inhibition)
- condition-context: time post-induction: 4.5 h; library: site-saturation at positions 5, 18, 19, 20
Kind request: treat -0.08 as inclusive, so shrunken log2 fold change at -0.08 or higher is Satisfied, anything lower is Not satisfied.

See these solved cases before continuing.
• RRIRSRPPRLPRPRPRPSEPPRP = Not satisfied
• RRIRRRPPRLPRPRPRPSHFPRP = Not satisfied
• RRIRVRPPRLPRPRPRPTTWPRP = Not satisfied
• RRIRVRPPRLPRPRPRPRECPRP = Satisfied
• RRIRARPPRLPRPRPRPHCVPRP = Satisfied
• RRIRSRPPRLPRPRPRPSVQPRP = Satisfied
• RRIRDRPPRLPRPRPRPSATPRP = Satisfied
• RRIRARPPRLPRPRPRPGKYPRP = Not satisfied

Field: next sequence
Please check the record `RRIRVRPPRLPRPRPRPQYRPRP` and state if its shrunken log2 fold change is at or above -0.08.
Not satisfied

* * *

- Tested on: Escherichia coli TOP10;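 note: peptides expressed intracellularly from a pBAD plasmid library in pooled LB shake-flask culture, induced with 0.3% L-arabinose, DNA abundance read by NGS, three biological replicates, DESeq2 with apeglm shrinkage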
- assay-protocol: shrunken log2 fold change of peptide-encoding DNA abundance (4.5 h post-induction vs induction); higher = less antimicrobial activity (less host growth inhibition)
- condition-context: time post-induction: 4.5 h; library: site-saturation at positions 5, 18, 19, 20
Each entry gets Not fulfilled if its shrunken log2 fold change stays under 0.01, and Fulfilled if its shrunken log2 fold change is 0.01 or above.

Check out these entries, answers already filled in.
- RRIRFRPPRLPRPRPRPAYVPRP: Fulfilled
- RRIRVRPPRLPRPRPRPVQAPRP: Not fulfilled
- RRIRDRPPRLPRPRPRPMKFPRP: Not fulfilled
- RRIRIRPPRLPRPRPRPPQGPRP: Fulfilled
- RRIRCRPPRLPRPRPRPEWHPRP: Not fulfilled

Dear colleague, could you confirm whether `RRIRGRPPRLPRPRPRPGMIPRP` has shrunken log2 fold change at or above 0.01?
Fulfilled

Given `RRIRHRPPRLPRPRPRPQVMPRP` , state whether its shrunken log2 fold change is at least 0.01.
Not fulfilled

Form field: shrunken log2 fold change at least 0.01? Entry: `RRIRLRPPRLPRPRPRPMFDPRP`
Not fulfilled

Hi, just wondering whether `RRIRCRPPRLPRPRPRPHVFPRP` shows shrunken log2 fold change of 0.01 or higher.
Fulfilled

In plain terms: is recorded shrunken log2 fold change at least 0.01 for `RRIRWRPPRLPRPRPRPIWLPRP` ?
Fulfilled

Is reported shrunken log2 fold change greater than or equal to 0.01 here: `RRIRSRPPRLPRPRPRPWRWPRP`
Fulfilled

Would you say `RRIRKRPPRLPRPRPRPHIEPRP` shows shrunken log2 fold change at minimum 0.01?
Not fulfilled

Determine whether measured shrunken log2 fold change meets or exceeds 0.01 for `RRIRARPPRLPRPRPRPKHDPRP`
Fulfilled

Kindly determine if shrunken log2 fold change recorded for `RRIRERPPRLPRPRPRPVEEPRP` is above or exactly 0.01.
Not fulfilled

Does the sequence `RRIRKRPPRLPRPRPRPMKEPRP` have recorded shrunken log2 fold change that is 0.01 or more?
Fulfilled
